The measurements presented in this section are drawn from paper PMC6032158.

system: 49-day-old S. mansoni adult worms; test: In vitro experiments with adult worms of S. mansoni (mortality, motor activity); format: cell-based, Schistosoma mansoni; settings: 5 µM, 24 h, male worms
experimental.endpoint: Motor Activity Reduction (%) Slight M
Provide only the numeric value, understood in %.

Here is how some molecules turned out for Motor Activity Reduction (%) Slight M.
1) COc1cc(/C=C/C(=O)N2CCC=CC2=O)cc(OC)c1OC    100
2) COc1cc(/C=C/C(=O)N(C(=O)NC2CCCCC2)C2CCCCC2)cc(OC)c1OC    0
3) COc1cc(/C=C/C(=O)N2CCCC2)cc(OC)c1OC    0

Let us examine a further case.
IN: Which value of Motor Activity Reduction (%) Slight M has been reported for O=C(/C=C/c1ccc2c(c1)OCO2)N1CCCC1 [Compound 14B] in the records?
OUT: 0

----------
test system: 49-day-old S. mansoni adult worms; assay: In vitro experiments with adult worms of S. mansoni (mortality, motor activity); type: cell-based, Schistosoma mansoni; conditions: 10 µM, 48 h, male worms
experimental.endpoint: Motor Activity Reduction (%) Significant M
Provide only the numeric value, understood in %.

1. COc1cc(/C=C/C(=O)N(C(=O)NC2CCCCC2)C2CCCCC2)cc(OC)c1OC    0
2. O=C(/C=C/c1ccc2c(c1)OCO2)N1CCCC1 [Compound 14B]    0
3. COc1cc(/C=C/C(=O)N2CCC=CC2=O)cc(OC)c1OC    100
4. COc1cc(/C=C/C(=O)N2CCCC2)cc(OC)c1OC    0

Let us examine a further case.
IN: Which value of Motor Activity Reduction (%) Significant M has been reported for O=C(/C=C/c1ccc([N+](=O)[O-])cc1)N(C(=O)NC1CCCCC1)C1CCCCC1 in the records?
OUT: 0

----------
A collection of compounds and their measured Motor Activity Reduction (%) Significant F
Test system: 49-day-old S. mansoni adult worms
Assay: In vitro experiments with adult worms of S. mansoni (mortality, motor activity)
Assay type: cell-based, Schistosoma mansoni
Details: 10 µM, 24 h, female worms
Method: The Belo Horizonte (BH) strain of S. mansoni was maintained in Biomphalaria glabrata snails and Mesocricetus auratus hamsters at the Adolfo Lutz Institute (São Paulo, Brazil) according to standard procedures. […] Cultures of adult worms were monitored by microscopy or magnifying glass. The effect of the drug was assessed with emphasis on changes in worm motor activity and death of worms as previously described.
Provide only the numeric value, understood in %.

Here is how some compounds turned out for Motor Activity Reduction (%) Significant F.
1. O=C(/C=C/c1ccc2c(c1)OCO2)N1CCCC1 [Compound 14B]    0
2. COc1cc(/C=C/C(=O)N(C(=O)NC2CCCCC2)C2CCCCC2)cc(OC)c1OC [Compound 1M]    0
3. COc1cc(/C=C/C(=O)N2CCC=CC2=O)cc(OC)c1OC [Piplartine]    100
4. O=C(/C=C/c1ccc([N+](=O)[O-])cc1)N(C(=O)NC1CCCCC1)C1CCCCC1 [Compound 6B]    0

IN: Request - read-out Motor Activity Reduction (%) Significant F | tested on 49-day-old S. mansoni adult worms | compound COc1cc(/C=C/C(=O)N2CCCC2)cc(OC)c1OC [Compound 1G]
OUT: 0

----------
A collection of compounds and their measured Motor Activity Reduction (%) Significant M
system: 49-day-old S. mansoni adult worms; assay: In vitro experiments with adult worms of S. mansoni (mortality, motor activity); format: cell-based, Schistosoma mansoni; conditions: 5 µM, 96 h, male worms

Here is how some compounds turned out for Motor Activity Reduction (%) Significant M.
1. O=C(/C=C/c1ccc([N+](=O)[O-])cc1)N(C(=O)NC1CCCCC1)C1CCCCC1    0%
2. COc1cc(/C=C/C(=O)N2CCC=CC2=O)cc(OC)c1OC    60%
3. COc1cc(/C=C/C(=O)N(C(=O)NC2CCCCC2)C2CCCCC2)cc(OC)c1OC    0%
4. O=C(/C=C/c1ccc2c(c1)OCO2)N1CCCC1 [Compound 14B]    0%

Let us examine a further case.
IN: Request - read-out Motor Activity Reduction (%) Significant M | tested on 49-day-old S. mansoni adult worms | compound COc1cc(/C=C/C(=O)N2CCCC2)cc(OC)c1OC
OUT: 0%
